Biological target: AE.A244 V1V2 Tags (HIV-1)
Assay: ELISA
Give measured pEC50 for each item. Keep answers brief.
Just so you know, pEC50 here is -log10 of the concentration in molar units; reply with that number alone.

The binder listed as CH59 reverted unmutated ancestor antibody (antibody, V domains shown, also called CH59 RUA; CH59_RUA) VH: EVQLVESGGGLVQPGRSLRLSCAASGFTFDDYAMHWVRQAPGKGLEWVSGISWNSGSIGYADSVKGRFTISRDNAKNSLYLQMNSLRAEDTALYYCAKDSPRGELPFDYWGQGTLVTVSS VL: SYELTQPPSVSVSPGQTARITCSGDALPKKYAYWYQQKSGQAPVLVIYEDSKRPSGIPERFSGSSSGTMATLTISGAQVEDEADYYCYSTDSSGNHRVFGGGTKLTVL shows pEC50 equal to 9.89

The binder listed as CH59 (antibody, V domains shown, also called mAb CH59) VH: EVQLVESGGGLVQPGRSLRLSCAASGFTFDDGAMHWVRQAPGKGLEWVSGISWNSNIIAYADSVKGRFTISRDNAKNSLYLEMNSLRVEDTALYYCAKDSPRGELPLNYWGQGTLVTVSS VL: SYELTQPPSVSVSPGQTARITCSGDALPKNYAYWYQQKSGQAPVLVIYEDSKRPSGIPERFSGSSSGTMATLTISGAQVEDEADYYCYSTDSSGNHRVFGGGTKLTVL shows pEC50 equal to 10.85

The binder listed as 697D (antibody, V domains shown, also called mAb 697D; V2 conformational mAb 697D) VH: QVQLVQSGAEVKKPGSSVKVSCKASGGNFNTYTISWVRQAPGQGLEWMGRIIPIFGIVNPAQKFPGRVTINVDKSTNTAYMELSSLRSEDTAVYYCATSGVGLHFGYFDYWGQGTQVTVSS VL: QSVLTQPPSVSGAPGQRVTISCTGSSSNIGAHYDVHWYQQLPGTAPKLLIYGNSNRPSGVPDRFSGSKSGTSASLAITGLQAEDEADYYCQSYDSSLSGYVFGTGTKVTVL shows pEC50 equal to 10.00

The binder listed as PG16 (antibody, V domains shown, also called mAb PG16; bnAb PG16) VH: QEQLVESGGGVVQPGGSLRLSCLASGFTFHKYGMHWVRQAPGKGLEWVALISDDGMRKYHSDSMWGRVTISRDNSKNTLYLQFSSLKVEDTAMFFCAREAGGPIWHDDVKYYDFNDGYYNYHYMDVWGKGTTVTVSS VL: QSALTQPASVSGSPGQTITISCNGTSSDVGGFDSVSWYQQSPGKAPKVMVFDVSHRPSGISNRFSGSKSGNTASLTISGLHIEDEGDYFCSSLTDRSHRIFGGGTKVTVL shows pEC50 equal to 8.43

Just for reference, patent US9988424 is where these values come from.
